Below, each entry is listed with its recorded IC50.
ASSAY_TARGET: M17 leucyl aminopeptidase (Plasmodium falciparum 3D7)
ASSAY_EXPLANATION: PfM17LAP leucine aminopeptidase inhibitors, dose response, biochemical, QFRET (AID 588688)
CONDITION_LABEL: recombinant PfM17LAP, H-Leu-NHMec fluorogenic substrate cleavage

// solved cases for IC50 follow
COMPOUND	IC50
O=C(CSc1nccc(=O)[nH]1)Nc1ccc(N2CCOCC2)cc1	17.5 µM
Cc1cc(SCC(=O)Nc2ccccc2C(=O)O)nc2ccccc12	17.1 µM
O=C(CSc1nccc(=O)[nH]1)Nc1ccc(Oc2ccccc2)cc1	23.6 µM
COC(=O)c1c(NC(=O)C2CC=CCC2C(=O)O)sc(C)c1-c1ccc(C)cc1 (centres undefined)	5.13 µM
COc1ccc(-c2nnc(NC(=O)C3CC(C)=C(C)CC3C(=O)O)s2)cc1 (centres undefined)	96.9 µM

Query string: Lookup: IC50 / M17 leucyl aminopeptidase (Plasmodium falciparum 3D7) / O=C(CSc1nc(O)cc(=O)[nH]1)Nc1ccccc1
Result string: 101 µM

Query string: Field entry: COc1cc(NC(=O)CSc2ccccc2)c(C(=O)O)cc1OC
Result string: 25.6 µM

Query string: Field entry: Cc1ccc(NC(=O)CSc2nc(O)cc(=O)n2Cc2ccccc2)cc1
Result string: 33.5 µM

Query string: Field entry: O=C(Cc1ccc2ccccc2c1)NO
Result string: 0.79 µM

Query string: Field entry: CCn1c2ccccc2c2cc(NC(=O)CSc3nc(C)cc(=O)[nH]3)ccc21
Result string: 10.8 µM

Query string: Field entry: O=C(Cc1cccc2ccccc12)NO
Result string: 6.11 µM

Query string: Field entry: CC1=C(C)CC(C(=O)Nc2nc(-c3cc(C)ccc3C)c(C)s2)C(C(=O)O)C1 (centres undefined)
Result string: 58.8 µM

Query string: Field entry: COc1ccc(OCCC(=O)NO)cc1
Result string: 65.6 µM

Query string: Field entry: CC1=C(C)CC(C(=O)Nc2ccc(Oc3ccc(Cl)cc3)cc2)C(C(=O)O)C1 (centres undefined)
Result string: 46.6 µM
